- Test system: amylase
- assay.method.text: Amylase activity retention in detergent use solution (4000 ppm, 5 GPG water; ethylidene substrate EPS, HEPES buffer pH 8.0)
- Format: biochemical
- experimental.setup: base formula, phosphonate at 0.1% elemental phosphorus level, use solution at 120º F., time 210 min
For each of the molecules below, state its Relative Amylase Enzyme Activity.
Kindly provide the numeric value in % only, without the unit symbol.

*Q* // query Relative Amylase Enzyme Activity value for entry O=P(O)(O)CN(CP(=O)(O)O)CP(=O)(O)O [ATMP, Aminotri (methylene phosphonic acid)]
*A* 100.38

*Q* // query Relative Amylase Enzyme Activity value for entry NCP(=O)(O)O [AMPA, Aminomethyl phosphonic acid]
*A* 91.32

*Q* // query Relative Amylase Enzyme Activity value for entry CC(O)(P(=O)(O)O)P(=O)(O)O [HEDP]
*A* 85.77

*Q* // query Relative Amylase Enzyme Activity value for entry O=C(O)CCC(CC(=O)O)(C(=O)O)P(=O)(O)O (stereo not shown) [PBTC, Phosphonebutane tricarboxylic acid]
*A* 84.45
